src = patent US20190330290A1

System: pRB
protocol summary: pRB phosphorylation level, immunofluorescence staining quantified with ImageJ
Type: cell-based, human
experimental context: human osteosarcoma cells, MG63; pharmaceutical association containing the GFR-binding compound (Table 6)
Description: The cells were first fixed for 20 min with 4% paraformaldehyde/PBS at 4° C. After fixation, the cells were permeabilized in PBS containing 1% Triton X-100 for 15 min. […] For this type of quantification the freeware image analysis ImageJ® software was used. […] Threshold values were determined empirically by selecting a setting, which gave the most accurate binary image for a subset of randomly selected photomicrographs. The cell area was determined by manual delineation on raw fluorescent images. […]
Provide the recorded pRB (%) for the entries that follow.
I only need the number, in %, no unit after it.

query: Query: pRB (%); subject: ASASPSSVSQDLSSLSILFF (Non-cyclic GFR-binding peptide) [SEQ ID NO: 58]
result: 15

query: What do you have for NDEGLESVPTEERSVKVAKV (Non-cyclic GFR-binding peptide) [SEQ ID NO: 63] ?
result: 22

query: What do you have for SSVKSQPSRVHHSPISILFI (Non-cyclic GFR-binding peptide) [SEQ ID NO: 57] ?
result: 17

query: What do you have for NDEGLESVPTEESAISMLYL (Non-cyclic GFR-binding peptide) [SEQ ID NO: 56] ?
result: 18

query: What do you have for VVPKPSSAPTQLEPISILYL (Non-cyclic GFR-binding peptide) [SEQ ID NO: 59] ?
result: 21

query: What do you have for SIPKASSTPTELSPINMLYF (Non-cyclic GFR-binding peptide) [SEQ ID NO: 54] ?
result: 23

query: What do you have for SSVKSQPSRVHHKPLSMLYV (Non-cyclic GFR-binding peptide) [SEQ ID NO: 62] ?
result: 18
